B1: Twister Ribozyme (parent)
chain: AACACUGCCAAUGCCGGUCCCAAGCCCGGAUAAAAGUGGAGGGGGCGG

Variants of: B1
Assay: self-cleavage, relative activity (ratio to wild type); higher = more cleavage; co-transcriptional
Use self-cleavage to assign classes; range list: low end = under 0.1, middle = from 0.1 up to 0.3, high end = 0.3 and over

Task: For the record CACACAGCCAAUGCCGGUCCCAAGCCCGGAUAAAAGUGGAGGGGGCGG [A1C U6A] , report the class its self-cleavage corresponds to.
Output: middle

Task: For the record AACACUGCCAAUGCUGGUCCCAAGCCCGGAUAAAACUGGAGGGGGCGG [C15U G36C] , report the class its self-cleavage corresponds to.
Output: middle

Task: For the record AACACUGCCAAUGCCGGUCCCAAGCCCGGAUAAAAGUAGAGGGGGCGU [G38A G48U] , report the class its self-cleavage corresponds to.
Output: high end

Task: For the record AACACCGCCAAUGCCGGUCCCAAGCCCCGAUAAAAGUGGAGGGGGCGG [U6C G28C] , report the class its self-cleavage corresponds to.
Output: middle

Task: For the record AACACUGCCAAUGCCGGCCCCAAGCCGGGAUAAAAGUGGAGGGGGCGG [U18C C27G] , report the class its self-cleavage corresponds to.
Output: low end

Task: For the record AACACGGCCAAUGCCGGUCCCAAGUCCGGAUAAAAGUGGAGGGGGCGG [U6G C25U] , report the class its self-cleavage corresponds to.
Output: middle

Task: For the record AAUACUGCCAAUGCCGGUCCCAAGCCCGGAUAAAAGUGGAGGGGCCGG [C3U G45C] , report the class its self-cleavage corresponds to.
Output: middle

Task: For the record AACACUGGCAAUGCCGGUCCCAAGCCCGGAUAAAAGUGUAGGGGGCGG [C8G G39U] , report the class its self-cleavage corresponds to.
Output: middle

Task: For the record AAGACUGCCAAUGCCGGUCCCAAGCGCGGAUAAAAGUGGAGGGGGCGG [C3G C26G] , report the class its self-cleavage corresponds to.
Output: low end

Task: For the record AACACUGCCAAUGCCGGUCCCACGCCCGGAUAAAAGUGGAGGGGGCGA [A23C G48A] , report the class its self-cleavage corresponds to.
Output: middle

Task: For the record AACACUGCCAAUGCCGGUCCCAUGCCCGGAUAAAAAUGGAGGGGGCGG [A23U G36A] , report the class its self-cleavage corresponds to.
Output: middle

Task: For the record AACACUGCCAACGCCGGUACCAAGCCCGGAUAAAAGUGGAGGGGGCGG [U12C C19A] , report the class its self-cleavage corresponds to.
Output: high end

Task: For the record AACACUGCCAAUGCCGGUCCCAAGCCCGGAUAAAAGUGAAGGGGGCGU [G39A G48U] , report the class its self-cleavage corresponds to.
Output: high end

Task: For the record AACACUGCCAAUGCCAAUCCCAAGCCCGGAUAAAAGUGGAGGGGGCGG [G16A G17A] , report the class its self-cleavage corresponds to.
Output: middle

Task: For the record CCCACUGCCAAUGCCGGUCCCAAGCCCGGAUAAAAGUGGAGGGGGCGG [A1C A2C] , report the class its self-cleavage corresponds to.
Output: high end

Task: For the record AACACUGCCAAUGCCAGUCCCAAGCCCGUAUAAAAGUGGAGGGGGCGG [G16A G29U] , report the class its self-cleavage corresponds to.
Output: high end

Task: For the record AACACGGCCAAUGCCGUUCCCAAGCCCGGAUAAAAGUGGAGGGGGCGG [U6G G17U] , report the class its self-cleavage corresponds to.
Output: low end

Task: For the record AGCACUGCCAAUGCCGGUCCCAAGCCCGGCUAAAAGUGGAGGGGGCGG [A2G A30C] , report the class its self-cleavage corresponds to.
Output: middle

Task: For the record AACACUGCCAAUGGCGGUCCCUAGCCCGGAUAAAAGUGGAGGGGGCGG [C14G A22U] , report the class its self-cleavage corresponds to.
Output: middle

Task: For the record AACACUUCCAAUGCCGGUCCCAAGCCCGGAUAAAAGGGGAGGGGGCGG [G7U U37G] , report the class its self-cleavage corresponds to.
Output: low end

Task: For the record ACCACUGCCAAUGUCGGUCCCAAGCCCGGAUAAAAGUGGAGGGGGCGG [A2C C14U] , report the class its self-cleavage corresponds to.
Output: low end
